Source of measurements: paper PMC10830635

Collected CC50 at 2 days values appear next to each entry.
ASSAY DETAILS: MTT cytotoxicity assay, HGF
Assay type: cell-based
CONDITION DETAILS: human, normal gingival fibroblasts (HGF), normal cells, 2 days exposure

COMPOUND STRUCTURE STRING	CC50 at 2 days
N[C@@H](Cc1ccc(N(CCCl)CCCl)cc1)C(=O)O	180 µM
O=c1[nH]cc(F)c(=O)[nH]1	> 1000 µM
COc1cccc2c1C(=O)c1c(O)c3c(c(O)c1C2=O)C[C@@](O)(C(=O)CO)C[C@@H]3O[C@H]1C[C@H](N)[C@H](O)[C@H](C)O1	> 10 µM

----------
ASSAY DETAILS: MTT cytotoxicity assay, HPC
Format: cell-based
CONDITION DETAILS: human, normal pulp cells (HPC), 2 days exposure
MEASURE: CC50 at 2 days

COMPOUND STRUCTURE STRING	OBS VALUE
COc1cccc2c1C(=O)c1c(O)c3c(c(O)c1C2=O)C[C@@](O)(C(=O)CO)C[C@@H]3O[C@H]1C[C@H](N)[C@H](O)[C@H](C)O1	> 10 µM
N[C@@H](Cc1ccc(N(CCCl)CCCl)cc1)C(=O)O	159 µM
O=c1[nH]cc(F)c(=O)[nH]1	> 1000 µM
